Target: T1, EsCas13d, nuclease-dead (Eubacterium siraeum, UniProt B0MS50, R295A;H300A;R849A;H854A)
T1 sequence: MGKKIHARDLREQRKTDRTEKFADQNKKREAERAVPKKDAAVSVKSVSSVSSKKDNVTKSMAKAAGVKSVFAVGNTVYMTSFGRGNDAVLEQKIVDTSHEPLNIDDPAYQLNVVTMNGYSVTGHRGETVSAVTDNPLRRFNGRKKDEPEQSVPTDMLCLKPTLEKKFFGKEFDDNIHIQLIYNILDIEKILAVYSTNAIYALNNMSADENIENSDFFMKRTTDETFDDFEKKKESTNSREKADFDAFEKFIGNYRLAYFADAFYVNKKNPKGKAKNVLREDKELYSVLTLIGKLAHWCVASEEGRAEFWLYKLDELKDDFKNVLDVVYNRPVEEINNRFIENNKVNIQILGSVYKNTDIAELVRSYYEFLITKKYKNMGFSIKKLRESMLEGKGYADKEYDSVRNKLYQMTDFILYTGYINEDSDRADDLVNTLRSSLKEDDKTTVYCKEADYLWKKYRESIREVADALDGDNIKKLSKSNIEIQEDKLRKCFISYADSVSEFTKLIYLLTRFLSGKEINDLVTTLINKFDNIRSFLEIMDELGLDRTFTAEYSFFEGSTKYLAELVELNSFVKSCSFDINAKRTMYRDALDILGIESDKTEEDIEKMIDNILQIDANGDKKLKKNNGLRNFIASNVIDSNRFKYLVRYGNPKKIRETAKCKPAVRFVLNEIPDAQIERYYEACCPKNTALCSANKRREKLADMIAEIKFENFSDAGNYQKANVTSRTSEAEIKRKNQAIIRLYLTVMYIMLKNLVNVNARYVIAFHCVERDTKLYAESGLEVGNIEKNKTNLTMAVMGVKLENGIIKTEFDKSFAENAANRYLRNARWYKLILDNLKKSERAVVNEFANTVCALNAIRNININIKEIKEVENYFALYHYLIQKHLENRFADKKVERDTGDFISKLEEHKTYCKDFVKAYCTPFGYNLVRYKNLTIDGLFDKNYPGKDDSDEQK
Assay: crRNA (strand 1, pre-loaded); Mg2+; 40 mM Tris-HCl pH 7.5, 150 mM NaCl, 6 mM MgCl2, 1 mM DTT, 0.1% Tween-20, 0.2 mg/ml BSA; 25 C; 10 min per concentration, then washed
Conditions: tags: His6-TwinStrep-SUMO cleaved; N-terminal SNAP kept (SNAP-Surface 488); label: 3' end held by stalled T7 RNA polymerase
Would you mind telling me the reported Kd of each entry?
Numbers only, in nM.

target 2 MT 5'PFS CGG 3'PFS UUC (mixed) RNA 1: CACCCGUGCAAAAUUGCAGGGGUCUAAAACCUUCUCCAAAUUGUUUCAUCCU RNA 2: GGGAAUGGAUCCACAUCUACGAAUUCCGGAGGAUGAAACAAUUUGGAGAAGUUCAGAUCGGAAGAGCACACGU; 10.8
target 1 insA 3' of 3,insC 3' of 3 (mixed) RNA 1: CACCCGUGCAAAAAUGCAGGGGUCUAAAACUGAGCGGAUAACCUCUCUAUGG RNA 2: GGGAAUGGAUCCACAUCUACGAAUUCGUACCAUAGAGAGGUUAUCCGCUACCACCGAGAUCGGAAGAGCACACGU; 62
target 1 U3C,U8G (mixed) RNA 1: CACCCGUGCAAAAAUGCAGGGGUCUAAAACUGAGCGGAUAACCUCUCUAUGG RNA 2: GGGAAUGGAUCCACAUCUACGAAUUCGUACCAUAGAGAGGUUAGCCGCCCACCGAGAUCGGAAGAGCACACGU; 18.6

Here is another binder to look at.
Just so you know, measured Kd for target 1 C7G,U19C (mixed) RNA 1: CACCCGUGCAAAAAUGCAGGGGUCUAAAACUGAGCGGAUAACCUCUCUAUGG RNA 2: GGGAAUGGAUCCACAUCUACGAAUUCGUACCACAGAGAGGUUAUGCGCUCACCGAGAUCGGAAGAGCACACGU came out at 32.2
